Ref: ChEMBL document CHEMBL1147635

Test system: Beta-secretase 1 (Homo sapiens)
Sequence (P56817 whole entry): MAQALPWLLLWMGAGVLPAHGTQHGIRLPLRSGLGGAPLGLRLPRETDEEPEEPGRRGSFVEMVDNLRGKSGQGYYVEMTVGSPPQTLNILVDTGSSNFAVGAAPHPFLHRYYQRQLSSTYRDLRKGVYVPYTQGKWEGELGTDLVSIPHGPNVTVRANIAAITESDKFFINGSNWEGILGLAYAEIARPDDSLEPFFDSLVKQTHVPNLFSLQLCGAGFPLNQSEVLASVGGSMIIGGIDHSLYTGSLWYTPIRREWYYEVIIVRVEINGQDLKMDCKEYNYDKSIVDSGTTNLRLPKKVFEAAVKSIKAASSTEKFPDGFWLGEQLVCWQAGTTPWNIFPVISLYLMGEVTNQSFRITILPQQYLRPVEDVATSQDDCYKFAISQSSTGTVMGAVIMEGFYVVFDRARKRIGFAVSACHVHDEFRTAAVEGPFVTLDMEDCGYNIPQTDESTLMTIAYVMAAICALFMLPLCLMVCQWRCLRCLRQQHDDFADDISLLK
Assay remarks: Inhibition of Beta-secretase 1 at 2 uM concentration
Where a SMILES comes first, the peptide text is derived from it.
Provide the recorded inhibition for the entries that follow.

Some entries whose results are on file:
# Compound, inhibition
rows = [
    ("CC(C)C[C@H](N)C(=O)N[C@@H](Cc1ccccc1)[C@@H](O)C(=O)N[C@@H](CC(=O)O)C(=O)N[C@@H](C)C(=O)N[C@@H](CCC(=O)O)C(=O)N[C@@H](Cc1ccccc1)C(=O)O (HELM PEPTIDE1{L.[O=C([C@H](O)[C@H](Cc1ccccc1)N[*:1])[*:2]].D.A.E.F}$$$$V2.0)", "< 20%"),
    ("CC(C)C[C@H](NC(=O)[C@@H](NC(=O)CN)C(C)C)C(=O)N[C@@H](Cc1ccccc1)[C@@H](O)C(=O)N[C@@H](CC(=O)O)C(=O)N[C@@H](C)C(=O)N[C@@H](CCC(=O)O)C(=O)N[C@@H](Cc1ccccc1)C(=O)O (HELM PEPTIDE1{G.V.L.[O=C([C@H](O)[C@H](Cc1ccccc1)N[*:1])[*:2]].D.A.E.F}$$$$V2.0)", "< 20%"),
    ("CC(C)C[C@H](NC(=O)[C@@H](N)C(C)C)C(=O)N[C@@H](Cc1ccccc1)[C@@H](O)C(=O)N[C@@H](CC(=O)O)C(=O)N[C@@H](C)C(=O)N[C@@H](CCC(=O)O)C(=O)N[C@@H](Cc1ccccc1)C(=O)O (HELM PEPTIDE1{V.L.[O=C([C@H](O)[C@H](Cc1ccccc1)N[*:1])[*:2]].D.A.E.F}$$$$V2.0)", "< 20%"),
    ("CC(C)C[C@H](NC(=O)[C@@H](NC(=O)[C@@H](N)CCC(=O)O)C(C)C)C(=O)N[C@@H](Cc1ccccc1)[C@@H](O)C(=O)N[C@@H](CC(=O)O)C(=O)N[C@@H](C)C(=O)N[C@@H](CCC(=O)O)C(=O)N[C@@H](Cc1ccccc1)C(=O)O (HELM PEPTIDE1{E.V.L.[O=C([C@H](O)[C@H](Cc1ccccc1)N[*:1])[*:2]].D.A.E.F}$$$$V2.0)", "< 90%"),
]

Input line: Kindly indicate its recorded inhibition. Item: CC(C)[C@H](NC(=O)[C@@H](N)CCC(=O)O)C(=O)NCC(=O)N[C@@H](Cc1ccccc1)[C@@H](O)C(=O)N[C@@H](CC(=O)O)C(=O)N[C@@H](C)C(=O)N[C@@H](CCC(=O)O)C(=O)N[C@@H](Cc1ccccc1)C(=O)O (HELM PEPTIDE1{E.V.G.[O=C([C@H](O)[C@H](Cc1ccccc1)N[*:1])[*:2]].D.A.E.F}$$$$V2.0)
Output line: < 20%
